Cited source: patent US20200308267A1

# measured.target: T1, recombinant human VEGF165 (human, UniProt P15692-4 27-191, biotinylated (Sulfo-NHS-LC-Biotin) in the competition assays)
# T1 construct: also called hVEGF165; rhVEGF165
# T1 sequence (P15692 other isoform, or with tags, fused parts or gaps limits assumed): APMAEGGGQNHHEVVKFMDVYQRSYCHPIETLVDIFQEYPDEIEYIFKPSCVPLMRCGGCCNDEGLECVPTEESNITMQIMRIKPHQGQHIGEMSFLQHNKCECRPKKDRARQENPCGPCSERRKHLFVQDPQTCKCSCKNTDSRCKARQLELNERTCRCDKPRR
# measurement.protocol: Biacore, periplasmic extract, VEGF165 chip, two phase decay fit
# Design: unit not given here
reported.endpoint: kd(slow)
Number, no unit, nothing else.

binder	kd(slow)
VEGFBII61A01 (VHH, not shown: small tags and cut ends) VHH: EVQLVESGGGLVQAGGSLRLSCAFSGRTFSSYSMGWFRQAQGKEREFVVAISSGGYKYDAVSLEGRFTISRDNTKNTVYLQTPSLKPEDTAVYYCAASRAYASSRLRLADTYDYWGQGTQVTVSS	0.00017

Please find the next binder below.
The reported value for VEGFBII41B05 (VHH, not shown: small tags and cut ends) VHH: EVQLVESGGGLVQPGGSLRLSCAFSGRTFSSYSMGWFRQAQGKEREFVVAISSGGFIYDAVSLEGRFTISRDNTKNTVYLQTPSLKPEDTAVYYCAASRAYGSSRLRLADTYDYWGQGTQVTVSS in terms of kd(slow) is 0.00012
